pIC50: −log10 of the molar value.
Form: system (Full length Akt2 (Homo sapiens)), quantity (pIC50), values below.

Cc1cnn(C)c1-c1ccc2c(c1)CN([C@H](CN)Cc1cc(F)cc(F)c1)C2=O [Example 42]; > 6.30
Cn1nccc1-c1ccc2c(c1)CN([C@H](CN)Cc1cccc(-c3ccncc3)c1)C2=O [Example 85]; < 5.30
Cn1ncc(-c2ccsc2)c1-c1ccc2c(c1)CN([C@H](CN)Cc1cccc(F)c1)C2=O [Example 16]; 5.30 to 6.30

Okay, next one:
Identify measured pIC50 obtained with Full length Akt2 (Homo sapiens) for Cn1nccc1-c1ccc2c(c1)CN([C@H](CN)Cc1cccc(-c3cccnc3)c1)C2=O [Example 86] .
Sequence (P31751 whole entry): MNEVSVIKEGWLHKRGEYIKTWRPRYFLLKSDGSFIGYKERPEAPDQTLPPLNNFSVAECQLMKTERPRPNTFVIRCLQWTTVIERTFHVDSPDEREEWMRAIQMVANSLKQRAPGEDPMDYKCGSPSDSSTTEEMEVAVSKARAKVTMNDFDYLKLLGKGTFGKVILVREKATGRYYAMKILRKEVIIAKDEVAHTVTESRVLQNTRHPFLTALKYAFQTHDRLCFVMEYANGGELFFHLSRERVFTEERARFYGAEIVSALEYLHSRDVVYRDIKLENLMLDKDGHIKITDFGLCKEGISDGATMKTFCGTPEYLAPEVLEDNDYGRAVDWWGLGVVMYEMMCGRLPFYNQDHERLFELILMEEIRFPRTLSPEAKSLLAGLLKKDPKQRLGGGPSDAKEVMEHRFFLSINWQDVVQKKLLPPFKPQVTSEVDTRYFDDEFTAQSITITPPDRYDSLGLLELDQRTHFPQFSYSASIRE
< 5.30
